// data source = ChEMBL document CHEMBL4689842

- Tested on: HEK-293T
- assay_summary: Multiplex assay against HEK293T
- Assay type: toxicity, cell-based
- cond: human, 24 h, 1 µM, compound concentration 1 uM, replicate 1
readout_kind: Population Normal (%)
Response body: numeric value in %, unit text excluded.

Tell me Population Normal (%) reported for C=CC(=O)Nc1ccc2[nH]c(=O)n(C3CCN(Cc4ccc(-c5nc6cc[nH]c(=O)c6cc5-c5ccccc5)cc4)CC3)c2c1
88

Provide only the value of recorded Population Normal (%) for Cc1c[nH]c2nccc(Oc3c(F)cc(Nc4cc(Cl)nc(N)n4)cc3F)c12
89

Please indicate Population Normal (%) recorded for Cc1ccc(C)c(Oc2ccncc2C(=O)N2CCN(C3CC3)c3ccccc32)c1
89

Identify the reported Population Normal (%) for the following entry. CN1CCN(Cc2ccc(Nc3ncc(Cl)c(Nc4ccccc4S(=O)(=O)N(C)C)n3)cc2)CC1
89

* * *

- Test system: U2OS
- assay_summary: Multiplex assay against U2OS
- Type: toxicity, cell-based
- cond: human, 12 h, 10 µM, compound concentration 10 uM, replicate 2
Would you mind telling me the reported Population Healthy Nuclei (%) of each entry?
Only the number, expressed in %, is required.

Write down Population Healthy Nuclei (%) measured for item O=c1[nH]c2ccccc2n1C1CCN(Cc2ccc(-c3[nH]c4cc5ncnc5cc4nc3-c3ccccc3)cc2)CC1
51

Provide one value: measured Population Healthy Nuclei (%) of Cc1nc(N2CC[C@H](O)C2)ncc1-c1cc(C(F)(F)F)cc2[nH]ncc12
84

Let me know recorded Population Healthy Nuclei (%) for CCc1ccc(OCc2ccccc2C(=O)Nc2ccc3nc(C)cc(N)c3c2)cc1.Cl , thanks.
14

Quick one: give measured Population Healthy Nuclei (%) for C=CC(=O)Nc1cccc(Oc2nc(Nc3ccc(N4CCN(C)CC4)cc3OC)ncc2Cl)c1
79

Indicate its recorded Population Healthy Nuclei (%); the compound in question is C=CC(=O)Nc1ccc2[nH]c(=O)n(C3CCN(Cc4ccc(-c5nc6cc[nH]c(=O)c6cc5-c5ccccc5)cc4)CC3)c2c1
77

Given COc1cc2ncn(-c3cc(OCc4ccccc4C(F)(F)F)c(C(N)=O)s3)c2cc1OC [GW843682X] , respond with its Population Healthy Nuclei (%).
75

Supply recorded Population Healthy Nuclei (%) for CNC(=O)Nc1ccc2c(c1)[C@@]1(CC2)OC(=O)N(CC(=O)N(Cc2ccc(F)cc2)[C@@H](C)C(F)(F)F)C1=O here.
83

* * *

- Test system: U2OS
- assay_summary: Multiplex assay against U2OS
- Type: toxicity, cell-based
- cond: human, 24 h, 10 µM, compound concentration 10 uM, replicate 2
Criterion: Total Cell Count strictly less than 100. Met: true (1). Not met: false (0).

For this compound, is Total Cell Count lower than 100? Cc1nc(N2CC[C@H](O)C2)ncc1-c1cc(C(F)(F)F)cc2[nH]ncc12
false (0)

Problem: For the compound CNC(=O)Nc1ccc2c(c1)[C@@]1(CC2)OC(=O)N(CC(=O)N(Cc2ccc(F)cc2)[C@@H](C)C(F)(F)F)C1=O [A-486] , is Total Cell Count under 100?
false (0)

# TODO verify Total Cell Count < 100 strictly for this compound: CNC(=O)Nc1ccc(-c2nc(N3CC4CCC(C3)O4)c3cnn(C4CCC5(CC4)OCCO5)c3n2)cc1
true (1)

Hello, I'm reviewing records and need to know if Total Cell Count of COc1ccccc1CN[C@H]1C2CCN(CC2)[C@H]1C(c1ccccc1)c1ccccc1 [CP-96345] is below 100. Could you check?
true (1)

API: query returns whether the compound falls strictly under 100 in Total Cell Count. Query: CCc1nn(CCCN2CCN(c3cccc(Cl)c3)CC2)c(=O)n1CCOc1ccccc1.Cl [NEFAZODONE HYDROCHLORIDE]
true (1)

Given the entry COc1cc(Nc2nccc(-c3cnn4nc(OC)ccc34)n2)cc(C(F)(F)F)c1 , would its reported Total Cell Count be below 100?
true (1)
